Provenance of the data: paper PMC9206137

Assay: Cell viability assay (MTT) in Vero E6 cells
Conditions: African green monkey, Vero E6 cells, %cell viability, Vero E6; niclosamide 0.03125 uM; replicates
readout.kind: viability at 48 h, 0.03125 uM (%)

>  <compound>
O=C(Nc1ccc([N+](=O)[O-])cc1Cl)c1cc(Cl)ccc1O [Niclosamide, niclosamide]

>  <measure.unit>
%

>  <recorded.measurement>
92.7

$$$$

----------
Assay: Cell viability assay (MTT) in Vero E6 cells
Details: African green monkey, Vero E6 cells, %cell viability, Vero E6; niclosamide 0.125 uM; replicates
readout.kind: viability at 48 h, 0.125 uM (%)

>  <compound>
O=C(Nc1ccc([N+](=O)[O-])cc1Cl)c1cc(Cl)ccc1O [Niclosamide, niclosamide]

>  <recorded.measurement>
91.3

$$$$

----------
Assay: Cell viability assay (MTT) in Calu-3 cells
Settings: human, Calu-3 cells, %cell viability, Calu-3; niclosamide 0.15625 uM; replicates
Experimental: Subsequently, the cell viability was assessed using MTT dyes (Invitrogen) in duplicate (Supplementary file 1). The procedure was described elsewhere. The viability of drug-treated cells was expressed as percent cell viability relative to 0.5% DMSO-treated cells.

>  <molecule>
O=C(Nc1ccc([N+](=O)[O-])cc1Cl)c1cc(Cl)ccc1O [Niclosamide, niclosamide]

>  <viability at 48 h, 0.15625 uM, %>
100

$$$$

----------
Assay: Cell viability assay (MTT) in Vero E6 cells
Conditions: African green monkey, %cell viability, Vero E6; chloroquine 40 uM; replicates

>  <compound>
CCN(CC)CCCC(C)Nc1ccnc2cc(Cl)ccc12 (stereo not shown)

>  <viability at 48 h, 40 uM / %>
78.5

$$$$

----------
Assay: Cell viability assay (MTT) in Calu-3 cells
Conditions: human, Calu-3 cells, %cell viability, Calu-3; niclosamide 5 uM; replicates

>  <compound>
O=C(Nc1ccc([N+](=O)[O-])cc1Cl)c1cc(Cl)ccc1O [Niclosamide, niclosamide]

>  <viability at 48 h, 5 uM [%]>
59.4

$$$$

----------
Assay: Cell viability assay (MTT) in Vero E6 cells
Settings: African green monkey, Vero E6 cells, %cell viability, Vero E6; niclosamide 0.00390625 uM; replicates
Method: Subsequently, the cell viability was assessed using MTT dyes (Invitrogen) in duplicate (Supplementary file 1). The procedure was described elsewhere. The viability of drug-treated cells was expressed as percent cell viability relative to 0.5% DMSO-treated cells.
readout.kind: viability at 48 h, 0.00390625 uM

>  <compound>
O=C(Nc1ccc([N+](=O)[O-])cc1Cl)c1cc(Cl)ccc1O [Niclosamide, niclosamide]

>  <readout.kind>
viability at 48 h, 0.00390625 uM

>  <recorded.measurement>
98.6%

$$$$

----------
Test: Cell viability assay (MTT) in Calu-3 cells
Details: human, Calu-3 cells, %cell viability, Calu-3; niclosamide 0.078125 uM; replicates
readout.kind: viability at 48 h, 0.078125 uM (%)

>  <compound>
O=C(Nc1ccc([N+](=O)[O-])cc1Cl)c1cc(Cl)ccc1O [Niclosamide, niclosamide]

>  <readout.kind>
viability at 48 h, 0.078125 uM

>  <recorded.measurement>
109

$$$$

----------
Test: Cell viability assay (MTT) in Calu-3 cells
Conditions: human, Calu-3 cells, %cell viability, Calu-3; niclosamide 0.625 uM; replicates

>  <molecule>
O=C(Nc1ccc([N+](=O)[O-])cc1Cl)c1cc(Cl)ccc1O [Niclosamide, niclosamide]

>  <viability at 48 h, 0.625 uM>
107%

$$$$

----------
Test: Cell viability assay (MTT) in Vero E6 cells
Conditions: African green monkey, Vero E6 cells, %cell viability, Vero E6; niclosamide 0.5 uM; replicates

>  <molecule>
O=C(Nc1ccc([N+](=O)[O-])cc1Cl)c1cc(Cl)ccc1O [Niclosamide, niclosamide]

>  <viability at 48 h, 0.5 uM (%)>
20.1

$$$$

----------
Experiment: Cell viability assay (MTT) in Calu-3 cells
Conditions: human, Calu-3 cells, %cell viability, Calu-3; niclosamide 0.3125 uM; replicates

>  <compound>
O=C(Nc1ccc([N+](=O)[O-])cc1Cl)c1cc(Cl)ccc1O [Niclosamide, niclosamide]

>  <viability at 48 h, 0.3125 uM>
100%

$$$$

----------
Assay: Cell viability assay (MTT) in Calu-3 cells
Conditions: human, Calu-3 cells, %cell viability, Calu-3; niclosamide 0.019531 uM; replicates

>  <compound>
O=C(Nc1ccc([N+](=O)[O-])cc1Cl)c1cc(Cl)ccc1O [Niclosamide, niclosamide]

>  <viability at 48 h, 0.019531 uM / %>
92.2

$$$$

----------
Assay: Cell viability assay (MTT) in Calu-3 cells
Conditions: human, Calu-3 cells, %cell viability, Calu-3; niclosamide 0.039063 uM; replicates
Protocol: Subsequently, the cell viability was assessed using MTT dyes (Invitrogen) in duplicate (Supplementary file 1). The procedure was described elsewhere. The viability of drug-treated cells was expressed as percent cell viability relative to 0.5% DMSO-treated cells.
readout.kind: viability at 48 h, 0.039063 uM (%)

>  <compound>
O=C(Nc1ccc([N+](=O)[O-])cc1Cl)c1cc(Cl)ccc1O [Niclosamide, niclosamide]

>  <measure.unit>
%

>  <recorded.measurement>
102

$$$$
